Recorded z-score for the following compounds
experiment: JC-1 mitochondrial signal, unstimulated HepG2 cells – cell-based, JC-1 fluorescence, 24 h, 100 nL compound, profiling panel (AID 1167); conditions: HepG2 mitochondrial potential, higher = more signal; further: test concentration not given here
PROPERTY_NAME: z-score

- CCOC(=O)C[C@H]1[C@H](OC(=O)Cc2ccc3c(c2)OCO3)[C@@H](NC(=O)C2CCCCC2)c2cc(OCCCO)ccc2N1C(=O)c1ccccc1: 1.69
- COC(=O)[C@@]1(Cc2ccccc2)[C@H]2c3cc(C(=O)N4CCCC4)n(CCc4ccccn4)c3C[C@H]2CN1C(=O)c1ccccc1: 0.571
- C=C(C(=O)CC[C@H](OC(=O)c1ccccc1-c1ccccc1C(=O)O)c1cccc(OCCO)c1)C(C)C: -1.68
- COc1ccc(C(=O)Nc2ccc(CN3C(=O)[C@]4(O[C@H](CC(=O)N5Cc6ccccc6C[C@H]5CO)[C@@H]([Si](C)(C)c5ccc(OC)cc5)[C@@H]4C)c4ccccc43)cc2)cc1: 0.705
- C=CC[C@@]1(C(=O)NCCCOC)N=C(c2ccc(OCCCO)cc2)O[C@@H]1c1ccccc1N=[N+]=[N-]: 1.62
- CCOC(=O)C[C@H]1[C@H](OC(=O)c2ccc(-c3ccccc3)cc2)[C@@H](NC(=O)CC(C)C)c2cc(OCCCO)ccc2N1C(=O)c1ccc2ccccc2n1: 1.66
- CCCN1C(=O)[C@]2(Cc3ccccc31)N=C(c1ccc(OCCCO)cc1)O[C@@H]2c1ccccc1: -0.29
- COc1cccc(C)c1NC(=O)O[C@H]1[C@H](OC(=O)Nc2ccc3c(c2)OCO3)[C@@H](OC(=O)Nc2ccc3c(c2)OCO3)[C@@H](OC)O[C@@H]1CO: -0.445
- COC(=O)c1c(CC[C@@H](CO)NC(=O)N2CCC[C@H]2Cn2cc(C3(O)CCCCC3)nn2)oc(C(C)=O)c1C(=O)OC: 0.223
- CCOC(=O)C[C@H]1[C@H](OC(=O)c2ccccc2-c2ccccc2)[C@@H](NC(=O)c2ccc3ccccc3n2)c2cc(OCCCO)ccc2N1C(=O)Cc1ccc(OC)cc1: 0.972
- CCC1=C2CN(Cc3ccccc3)[C@@H](C(=O)Cc3ccccc3)C2C=CCC1 (some centres undefined): 0.821
- COCCCNC(=O)[C@@H]1c2ccccc2C(=O)N(C(C)C)[C@H]1c1ccc(CO)cc1: -0.106
- COC(=O)[C@@H]1N=C(c2ccc(OCCCO)cc2)O[C@@H]1c1ccccc1: -0.659
- COCCOC(=O)N1C(=O)[C@@]2(c3ccccc31)[C@H](c1ccc(O)cc1)N1[C@H](c3ccccc3)[C@H](c3ccccc3)OC(=O)[C@H]1[C@@H]2C(=O)N1CCN(c2ncccn2)CC1: -0.238

---

tested on: Human papillomavirus type 1a protein E7 (residues 44-93); assay: small molecules binding HPV E7 44-93 – biochemical, small-molecule microarray, residues 44-93, 635 nm fluorescence, primary screen (AID 1108); settings: fluorescence 635 nm, higher = more signal;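 further: E7 fragment applied at 1 µg/mL in TBST for 1 h at 4 C; score combines spot fluorescence with its signal to noise ratio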
Mark no for composite z-score values under 0.5, and yes for everything at or above.

* C=CCNC(=O)[C@@H]1[C@H]2C(=O)O[C@H](c3ccccc3)[C@H](c3ccccc3)N2[C@H](c2ccc(O)cc2)[C@@]12C(=O)N(C(=O)OCCOC)c1ccc(C#CC3=CCCCC3)cc12 | yes
* CCOC(=O)C[C@H]1[C@H](OC(=O)c2ccccc2-c2ccccc2)[C@@H](NC(=O)c2ccc3ccccc3n2)c2cc(OCCCO)ccc2N1C(=O)Cc1ccc(OC)cc1 | no
* COCCOC(=O)N1C(=O)[C@@]2(c3ccccc31)[C@H](c1ccc(O)cc1)N1[C@H](c3ccccc3)[C@H](c3ccccc3)OC(=O)[C@H]1[C@@H]2C(=O)N1CCN(c2ncccn2)CC1 | yes
* O=C(C1N=C(c2ccc(OCCCO)cc2)N(c2ccccc2)O1)N1CCCCC1 (stereo not drawn) | yes
* C#CCN(Cc1ccccc1Br)[C@H](/C=C/c1ccccc1)[C@@H](O)Cc1ccccc1 | no
* CO[C@H]1O[C@H](CO)[C@@H](OC(=O)Nc2ccc3c(c2)OCO3)[C@H](OC(=O)Nc2ccc3c(c2)OCO3)[C@@H]1OC(=O)Nc1ccc2c(c1)OCO2 | yes
* CC(=O)N1CC2(CC2)CC1c1ccccc1 (stereo not drawn) | yes

---

target: NADPH oxidase 2 (Homo sapiens) (UniProt P04839); assay: compounds shifting NOX2 Amplex Red fluorescence – cell-based, HEK293-NOX2, PMA-stimulated, NOX inhibitor project, primary screen (AID 1159); conditions: 45 min, higher = more signal, called active from +8 up or from −8 down; further: test concentration not given here
Sequence (P04839 whole entry, looked up): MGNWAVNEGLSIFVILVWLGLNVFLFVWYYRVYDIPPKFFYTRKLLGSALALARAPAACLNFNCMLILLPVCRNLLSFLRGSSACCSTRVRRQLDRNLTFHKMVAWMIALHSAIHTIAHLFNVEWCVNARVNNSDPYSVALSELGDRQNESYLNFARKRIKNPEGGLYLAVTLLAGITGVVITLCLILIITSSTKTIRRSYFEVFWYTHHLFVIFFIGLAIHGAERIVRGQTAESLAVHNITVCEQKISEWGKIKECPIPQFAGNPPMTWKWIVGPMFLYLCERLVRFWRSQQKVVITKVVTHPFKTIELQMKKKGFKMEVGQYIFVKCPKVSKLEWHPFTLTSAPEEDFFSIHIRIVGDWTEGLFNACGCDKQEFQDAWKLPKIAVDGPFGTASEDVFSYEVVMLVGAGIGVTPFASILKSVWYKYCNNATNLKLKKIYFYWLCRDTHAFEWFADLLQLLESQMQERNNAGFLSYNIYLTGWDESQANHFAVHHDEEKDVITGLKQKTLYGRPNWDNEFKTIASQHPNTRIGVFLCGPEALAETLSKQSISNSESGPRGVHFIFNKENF
Classify as follows. Reported z-score greater than or equal to 0.1: class 1. Reported z-score below: class 0.

* CCOC(=O)C[C@H]1[C@H](OC(=O)Cc2ccc3c(c2)OCO3)[C@@H](NC(=O)c2ccc3ccccc3n2)c2cc(OCCCO)ccc2N1C(=O)c1ccc2ccccc2n1 | class 1
* COC(=O)[C@@]1(Cc2ccc(F)cc2)[C@H]2c3cc(C(=O)N(C)C)n(Cc4ccc(OC(F)(F)F)cc4)c3C[C@H]2CN1C(=O)c1ccccc1 | class 1
* COCC(=C=CC[C@H](O)c1ccc(CO)o1)CCO | class 1
* [N-]=[N+]=Nc1ccccc1C[C@@]1(C(=O)NCCN2CCOCC2)N=C(c2ccc(OCCCO)cc2)O[C@@H]1c1ccccc1N=[N+]=[N-] | class 0
* CC(C)=C1C(=O)C(c2ccccc2)=C2CN3C(=O)N(CCc4ccccc4)C(=O)[C@]3(Cc3ccc(C(F)(F)F)cc3)[C@H]21 | class 0
* O=C(NCCN1CCOCC1)[C@@H]1c2ccccc2C(=O)N(Cc2ccccc2Cl)[C@H]1c1ccc(CO)cc1 | class 0
* [N-]=[N+]=NCc1ccccc1[C@@H]1OC(c2ccc(OCCCO)cc2)=N[C@]1(CCS(=O)(=O)c1ccccc1)C(=O)O | class 1

---

target: E3 ubiquitin-protein ligase XIAP (Homo sapiens) (UniProt P98170); test: small molecules binding XIAP protein – biophysical, small-molecule microarray, fluorescence 635 nm, primary screen (AID 1181); conditions: higher = more signal;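 further: score merges 667 nm emission and signal to noise over triplicate slides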
Sequence (P98170 whole entry, looked up): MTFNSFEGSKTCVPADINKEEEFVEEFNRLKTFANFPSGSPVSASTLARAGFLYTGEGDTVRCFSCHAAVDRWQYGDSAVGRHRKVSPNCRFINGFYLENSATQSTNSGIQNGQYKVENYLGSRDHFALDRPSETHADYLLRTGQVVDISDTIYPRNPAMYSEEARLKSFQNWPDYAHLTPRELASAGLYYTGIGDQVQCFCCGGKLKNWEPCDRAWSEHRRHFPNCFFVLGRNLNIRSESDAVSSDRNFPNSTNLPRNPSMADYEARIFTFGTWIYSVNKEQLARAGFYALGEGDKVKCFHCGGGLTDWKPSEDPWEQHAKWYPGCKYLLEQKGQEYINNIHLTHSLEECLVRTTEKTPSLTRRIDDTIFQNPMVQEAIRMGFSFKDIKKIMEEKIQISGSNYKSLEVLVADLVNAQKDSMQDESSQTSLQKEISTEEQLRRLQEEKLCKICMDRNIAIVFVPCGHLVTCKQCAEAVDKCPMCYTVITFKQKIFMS
# key: entry, value: composite z-score
PROPERTY_NAME: composite z-score

- Cc1ccc(S[C@]2(C(=O)NC(C)C)CC(=O)N(Cc3cc(C(F)(F)F)cc(C(F)(F)F)c3)[C@@H]2c2ccc(CO)cc2)cc1: -0.0125
- O=C1O[C@@H](c2ccccc2)[C@@H](c2ccccc2)N2[C@@H](c3ccc(OCCO)cc3)[C@]3(C(=O)Nc4ccc(C#CC5=CCCCC5)cc43)[C@@H](C(=O)NC[C@H](O)c3ccccc3)[C@H]12: -0.118
- Cc1ccccc1C(O)C1C=CC2C(=O)NC(=O)C2N1Nc1ccccn1 (stereo unspecified): 0.127
- CS(=O)(=O)CCOC(=O)C1=CC(CCCO)=CC(c2ccc(CN3CCCC3)cc2)N(Cc2sc3ccccc3c2Cl)C=C1C(=O)OCCS(C)(=O)=O (stereo unspecified): -0.247
- COc1ccc([Si](C)(C)[C@@H]2[C@@H](CCO)O[C@]3(C(=O)N(Cc4ccccc4)c4ccc(N5CCOC5=O)cc43)[C@H]2C)cc1: 0.0605
- O=C1C[C@]2(c3ccc([N+](=O)[O-])cc3)C(=O)N(C3CC3)c3cc(CO)ccc3[C@H]2N1CC12CC3CC(CC(C3)C1)C2: -0.158
- CO[C@H]1O[C@H](CO)[C@@H](OC(=O)Nc2ccc3c(c2)OCO3)[C@H](OC(=O)Nc2ccc3c(c2)OCO3)[C@@H]1OC(=O)Nc1ccc2c(c1)OCO2: 0.374
- CCOC(=O)[C@@H]1CCCCN1C(=O)C(=O)OC: 0.269
- C=CC[C@@]1(C(=O)NCCCOC)N=C(c2ccc(OCCCO)cc2)O[C@@H]1c1ccccc1N=[N+]=[N-]: 0.598
- CC(C)N1C(=O)C[C@@](C(=O)O)(c2ccc([N+](=O)[O-])cc2)[C@H]1c1ccc(CO)cc1: -0.169
- NCCCCCCNC(=O)[C@@H]1C[C@@H]2C(=O)N[C@@H](CCCCN)C(=O)N2[C@@H]1c1ccc(O)cc1: -0.28
- COC(=O)C/C=C/C[C@]1(O)C(=O)N(C)c2ccccc21: -0.0861
- C=CCC(OC(C)=O)[C@@H]1[C@@H](N(Cc2ccc(-c3cccc(C(F)(F)F)c3)o2)C(=O)c2ccc(-c3ccccc3)cc2)c2cc(OCCCO)ccc2N1C(=O)Cc1ccc2ccccc2c1 (stereo partly specified): -0.17
- CC(CO)N1C(=O)[C@@H]2[C@H]3C(=O)OCC=C[C@H]3OC23C=CCN(Cn2nnc4ccccc42)C(=O)[C@@H]13 (stereo partly specified): -0.334
- CCCCC=C[C@@H](NC(=O)OCc1ccccc1Cl)c1ccccc1: 0.0137
- CC(C)=C1C(=O)C(c2ccccc2)=C2CN3C(=O)N(CCc4ccccc4)C(=O)[C@]3(Cc3ccc(C(F)(F)F)cc3)[C@H]21: -0.213
- O=C(C1N=C(c2ccc(OCCCO)cc2)N(c2ccccc2)O1)N1CCCCC1 (stereo unspecified): 0.0761
- COC(=O)c1c(CC[C@@H](CO)NC(=O)N[C@@H](C)Cn2cc(-c3ccccn3)nn2)oc(C(C)=O)c1C(=O)OC: 0.0808
- [N-]=[N+]=Nc1ccccc1C[C@]1(C(=O)NCC(O)CO)COC(c2ccc(OCCCO)cc2)=N1 (stereo partly specified): 0.0449
- COc1cc2c(cc1O)C(c1cccs1)N(Cc1cc3c(cc1Br)OCO3)CC2 (stereo unspecified): 0.483
- CC(CO)N1C(=O)[C@]2(C)C3C(=O)OCCC/C=C\[C@H]3OC23C=CCN(c2ccc(Cl)cc2)C(=O)[C@@H]13 (stereo partly specified): 0.834
- CN(C)C(=O)[C@@]1(Cc2ccccc2)N=C(c2ccc(OCCCO)cc2)O[C@H]1c1ccccc1: -0.205
- O=C1OCCC=C[C@H]2OC34C=CCN(c5ccc6ccccc6c5)C(=O)[C@H]3N(CCCO)C(=O)[C@@H]4C12 (stereo partly specified): 0.158
- CCCC[C@@H](O)C1=C(COc2ccccc2)C[C@H]2C(=O)N(Cc3ccccc3)C(=O)[C@H]2[C@H]1CO: -0.0118
- COc1cc2c(cc1O)C(c1ccc(CN3CCCC3)cc1)N(Cc1cc3c(cc1Br)OCO3)CC2 (stereo unspecified): -0.123
- COC(=O)[C@@]1(Cc2ccccc2)[C@H]2c3cc(C(=O)N4CCCC4)n(CCc4ccccn4)c3C[C@H]2CN1C(=O)c1ccccc1: 0.293
- C=CCC(OC(C)=O)[C@@H]1[C@@H](N(Cc2ccc(-c3ccccc3)cc2)C(=O)c2ccc(-c3ccccc3)cc2)c2cc(OCCCO)ccc2N1C(=O)c1ccc2ccccc2c1 (stereo partly specified): 0.0423
- CC(c1ccccc1)C(O)C1C=CC2C(=O)N(C)C(=O)C2N1Nc1ccccc1 (stereo unspecified): -0.0654
- [N-]=[N+]=Nc1ccccc1C[C@]1(C(=O)O)COC(c2ccc(OCCCO)cc2)=N1: 0.245
- CCOC(=O)C[C@H]1[C@H](OC(=O)c2ccc(C(=O)c3ccccc3)cc2)[C@@H](NC(=O)C2CCCCC2)c2cc(OCCCO)ccc2N1C(=O)c1ccc2ccccc2n1: -0.0141
- O=C1[C@H]2C=C(I)[C@H](C[C@@H]2OCCOCCO)[C@@]12CO2: -0.304
